- MEASUREMENT_TARGET: E3 ubiquitin-protein ligase Mdm2 (Homo sapiens, UniProt Q00987)
- Sequence (Q00987 whole entry): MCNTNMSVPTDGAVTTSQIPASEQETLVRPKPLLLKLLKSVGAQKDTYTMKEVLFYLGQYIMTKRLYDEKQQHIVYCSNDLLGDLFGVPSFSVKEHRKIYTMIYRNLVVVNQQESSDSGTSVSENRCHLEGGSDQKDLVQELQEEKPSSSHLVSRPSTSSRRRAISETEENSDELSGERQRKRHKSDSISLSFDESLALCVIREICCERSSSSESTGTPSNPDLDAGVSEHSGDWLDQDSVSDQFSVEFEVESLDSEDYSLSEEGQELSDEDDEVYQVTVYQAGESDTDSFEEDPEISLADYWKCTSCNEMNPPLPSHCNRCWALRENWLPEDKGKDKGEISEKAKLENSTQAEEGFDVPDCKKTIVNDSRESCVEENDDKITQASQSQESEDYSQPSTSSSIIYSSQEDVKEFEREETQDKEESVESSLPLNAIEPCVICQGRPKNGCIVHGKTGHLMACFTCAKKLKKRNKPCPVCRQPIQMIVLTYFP
ENDPOINT: IC50

Any idea what its IC50 is? The molecule is "O=C(NCC[C@H](O)CO)[C@@H]1N[C@H](CC2CCCCC2)[C@]2(C(=O)Nc3cc(Cl)c(F)cc32)[C@H]1c1cccc(Cl)c1"
< 1000 nM

Hello, the source for this data is BindingDB's records for patent US8680132, in case you need it.
